# targetSystem: Peptide 5: Biotin-…-[Tyr(PC)]-acid
# Sequence (peptide, as listed by the source): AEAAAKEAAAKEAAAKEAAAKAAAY
# assay: scFv ELISA
Consider the following binders; for each one, report its OD450.
One number for each entry, in OD450.

PcOxP_DB01_H07 (scFv, V domains shown, scFv in periplasmic extract) VH: EVQLLESGGGLVQPGGSLRLSCAASGFTFSDHYMEWVRQAPGKGLEWVAASRNKYNDYTTEYADSVKGRFTISRDNSKNTLYLQMNSLRAEDTAVYYCARDIYGSSYWYFDVWGQGTLVTVSS VL: DIVMTQSPDSLAVSLGERATINCTASESVYSSKNKKHYLAWYQQKPGQPPKLLIYGASNRYIGVPDRFSGSGSGTDFTLTISSLQAEDVAVYYCAQFYSYPLTFGGGTKVEIK ... 0.92
PcOxP_DB01_G02 (scFv, V domains shown, scFv in periplasmic extract) VH: EVQLLESGGGLVQPGGSLRLSCAASGFLFSDFYMEWVRQAPGKGLEWVAASRNKANDYTTTYADSVKGRFTISRDNSKNTLYLQMNSLRAEDTAVYYCARDYYGSHYWYFDVWGQGTLVTVSS VL: DIVMTQSPDSLAVSLGERATINCTASESLYSSKHKVHYLAWYQQKPGQPPKLLIYGASNREIGVPDRFSGSGSGTDFTLTISSLQAEDVAVYYCAQFYFYPLTFGGGTKVEIK ... 1.2

Next binder, OD450 to be filled in.
The measured OD450 associated with PcOxP_DB01_E07 (scFv, V domains shown, scFv in periplasmic extract) VH: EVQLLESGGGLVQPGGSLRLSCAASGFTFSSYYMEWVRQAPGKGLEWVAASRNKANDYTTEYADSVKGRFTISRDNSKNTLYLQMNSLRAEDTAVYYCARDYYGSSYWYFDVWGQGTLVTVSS VL: DIVMTQSPDSLAVSLGERATINCTASESLYSSKHKVDYLAWYQQKPGQPPKLLIYGASNRYIGVPDRFSGSGSGTDFTLTISSLQAEDVAVYYCAQFYSYPLTFGGGTKVEIK reads 1.51
